target: Voltage-gated inwardly rectifying potassium channel KCNH2 (Homo sapiens) (UniProt Q12809); experiment: Human Ether-a-go-go-Related Gene (hERG) channel small molecule antagonists: fluorescence cell-based qHTS assay (AID 1671200); settings: hERG-U2OS cells, FluxOR thallium flux fluorescence; series mostly up to 76.8 µM; further: nearly all actives have a fitted effect of over 50% in size
Sequence (Q12809 whole entry, looked up): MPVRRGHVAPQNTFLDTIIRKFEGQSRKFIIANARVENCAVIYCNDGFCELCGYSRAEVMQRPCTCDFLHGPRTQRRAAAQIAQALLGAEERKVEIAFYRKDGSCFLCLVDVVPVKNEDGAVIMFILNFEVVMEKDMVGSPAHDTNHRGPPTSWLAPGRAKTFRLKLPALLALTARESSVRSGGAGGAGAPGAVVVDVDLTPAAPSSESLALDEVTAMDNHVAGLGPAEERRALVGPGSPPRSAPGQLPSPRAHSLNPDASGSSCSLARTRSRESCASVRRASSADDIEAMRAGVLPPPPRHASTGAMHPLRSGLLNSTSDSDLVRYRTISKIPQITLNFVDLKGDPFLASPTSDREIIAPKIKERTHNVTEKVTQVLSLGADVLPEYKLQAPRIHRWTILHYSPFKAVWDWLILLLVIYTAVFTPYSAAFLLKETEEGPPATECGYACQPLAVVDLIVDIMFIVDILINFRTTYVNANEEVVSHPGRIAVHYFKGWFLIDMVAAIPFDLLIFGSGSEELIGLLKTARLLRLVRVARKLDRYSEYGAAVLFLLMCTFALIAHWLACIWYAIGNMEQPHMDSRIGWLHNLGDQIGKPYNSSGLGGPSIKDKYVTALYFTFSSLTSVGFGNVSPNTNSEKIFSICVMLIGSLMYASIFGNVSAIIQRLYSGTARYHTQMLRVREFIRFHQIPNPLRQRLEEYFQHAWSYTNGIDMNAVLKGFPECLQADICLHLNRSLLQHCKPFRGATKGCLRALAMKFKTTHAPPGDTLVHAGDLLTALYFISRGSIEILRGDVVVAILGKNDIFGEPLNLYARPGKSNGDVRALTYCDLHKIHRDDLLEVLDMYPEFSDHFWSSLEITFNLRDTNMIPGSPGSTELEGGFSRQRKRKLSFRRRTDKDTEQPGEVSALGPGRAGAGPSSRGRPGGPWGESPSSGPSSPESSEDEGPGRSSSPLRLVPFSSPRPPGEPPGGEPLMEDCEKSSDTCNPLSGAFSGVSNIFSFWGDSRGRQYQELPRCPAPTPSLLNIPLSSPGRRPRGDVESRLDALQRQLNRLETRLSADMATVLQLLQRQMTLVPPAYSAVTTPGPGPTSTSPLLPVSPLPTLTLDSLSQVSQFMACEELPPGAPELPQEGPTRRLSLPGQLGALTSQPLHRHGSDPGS
Results filed as inconclusive are left out. Calls of active or inactive are those of the source. The call rests on the fitted dose curve; in most records, active means well fitted inhibition curve with a large enough effect in the repeat runs; inconclusive means weak or mixed curves; inactive means flat fitted curve, though single readings scatter.
Form entry, call: pick from YES (active), NO (inactive)

Study these solved cases before continuing.
CCOC(=O)C1(c2ccccc2)CCN(CCC(C#N)(c2ccccc2)c2ccccc2)CC1 YES
O=C(O)COc1nc(Cl)c(Cl)cc1Cl NO
Clc1ccc(C(c2ccc(Cl)cc2)C(Cl)(Cl)Cl)cc1 YES

How did this test come out for CC(C)(O)c1cnn2c(-c3ccc(F)c(-c4c(F)cccc4C#N)c3)cnc2n1 ? NO

###

Molecular target: Voltage-gated inwardly rectifying potassium channel KCNH2 (Homo sapiens) (UniProt Q12809)
Test: Human Ether-a-go-go-Related Gene (hERG) channel small molecule antagonists: fluorescence cell-based qHTS assay (AID 1671200); further: nearly all actives have a fitted effect of over 50% in size
Details: hERG-U2OS cells, FluxOR thallium flux fluorescence; series mostly up to 76.8 µM
Description: National Center for Advancing Translational Sciences [NCATS] U.S. Environmental Protection Agency [EPA] National Institutes of Environmental Health Sciences [NIEHS] National Toxicology Program [NTP] U.S. Food and Drug Administration [FDA] Mutations in the hERG channel cause Long QT (LQT) syndrome. LQT syndrome is a cardiac disorder which can cause ventricle arrhythmia and sudden death. Additionally, compounds which block the hERG channel can cause acquired LQT syndrome. […]
Records with an inconclusive call do not appear. The source made the active and inactive calls. Calls follow the shape of the dose curve; as a rule, active = well fitted inhibition curve with a large enough effect in the repeat runs; inconclusive = weak or mixed curves; inactive = flat fitted curve, though single readings scatter.
Write down one outcome, taken from t for active, f for inactive

// known answers, use as guide
compound	label_class
[Cl][Sb]([Cl])[Cl]	f
Oc1ccc2ccc3cccc4ccc1c2c34	f
NC(=O)c1ccc(N)nc1	f
CCC[CH2][Sn]([CH2]CCC)([CH2]CCC)[O]C(=O)c1ccccc1	t
[Cl][Sn]([c]1ccccc1)([c]1ccccc1)[c]1ccccc1	t

Hi, do you know how CNC(C)Cc1ccc2c(c1)OCO2 (stereo not drawn) came out in this test? f

Could you check what this test reported for CN(C)S(=O)(=O)N(SC(F)(Cl)Cl)c1ccccc1 ? t

How did this test come out for c1ccc(OCC2CO2)cc1 (stereo not drawn) ? f

Field: outcome | Entry: COP(N)(=S)OC f

# fetch the recorded call for Clc1ccc(-c2ccc(Cl)c(Cl)c2Cl)c(Cl)c1Cl here f

Test call, this compound: Cc1cc(C(F)(C(F)(F)F)C(F)(F)F)ccc1NC(=O)c1cccc(I)c1C(=O)NC(C)(C)CS(C)(=O)=O f

Record lookup: outcome of this test for CCOP(=O)(NC(C)C)Oc1ccc(SC)c(C)c1 (stereo not drawn) ? f

Record lookup: outcome of this test for Oc1ccccc1Br ? f

Query: recorded result category for CC(=O)[O-].CC(=O)[O-].[Hg+2] in this test t

State the result this test recorded for COc1cc(C=O)cc2c1[C@H](COC(N)=O)[C@]1(OC(C)=O)ON2C[C@H]2[C@@H]1N2C(C)=O . f

Query: recorded result category for COC(=O)N(C(=O)N1COC2(C(=O)OC)Cc3cc(Cl)ccc3C2=N1)c1ccc(OC(F)(F)F)cc1 (stereo not drawn) in this test f

For this compound, state the assay outcome: CN(C)CCc1c[nH]c2cccc(O)c12 f

Returns: the outcome recorded for CCC(C)(C)C(=O)OC1=C(c2ccc(Cl)cc2Cl)C(=O)OC12CCCCC2 in this assay. f

Field: outcome | Entry: BrC(Br)Br f
